From: patent US20240287177A1

Biological target: NKp30 on human NK cells (human) (UniProt O14931)
Sequence (O14931 19-201): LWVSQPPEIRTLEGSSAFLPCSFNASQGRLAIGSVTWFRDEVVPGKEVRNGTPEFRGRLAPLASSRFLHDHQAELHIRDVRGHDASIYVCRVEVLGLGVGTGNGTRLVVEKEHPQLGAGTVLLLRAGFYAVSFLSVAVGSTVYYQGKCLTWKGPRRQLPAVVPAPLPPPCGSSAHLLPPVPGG
Assay: cell-based or functional assay
Parameter: Max. TNFα release (pg/ml), NK cells with A431 cells. Scope: all listed entries.
All answers are understood in pg/mL, so give the number only.

Task: Supply recorded Max. TNFα release (pg/ml), NK cells with A431 cells for VHH8 SEEDbody eff- (bispecific antibody, part only; not given: silenced SEED Fc and cetuximab Fab, V domains shown, not shown: another chain or arm of the molecule; a dimerising Fc or GST; small tags and cut ends) VHH: DVQLQESGGGLAQPGGSLRLSCAASGFTFSSYDMGWYRQAPGKECELVAAIFSADGSTIYADSVKGRFTISSDNAKNTVFLQMNSLKPEDTAVYYCNKAPPFTTIQPMCVMIDTQLGAWGQGTQVTVSS here.
Output: 109

Task: Supply recorded Max. TNFα release (pg/ml), NK cells with A431 cells for VHH16 SEEDbody eff- (bispecific antibody, part only; not given: silenced SEED Fc and cetuximab Fab, V domains shown, not shown: another chain or arm of the molecule; a dimerising Fc or GST; small tags and cut ends) VHH: DVQLQESGGGLVQPGGSLRLSCTASGSIFSSLTMAWWRQAPGKQRELVAGITTDGSTDYADSVKGRFTISRDNAKNTVYLQMDSLKPEDTAVYYCNKSPYYDPTDYDSWGQGTQVTVSS here.
Output: 114

Task: Supply recorded Max. TNFα release (pg/ml), NK cells with A431 cells for VHH4 SEEDbody eff- (bispecific antibody, part only; not given: silenced SEED Fc and cetuximab Fab, V domains shown, not shown: another chain or arm of the molecule; a dimerising Fc or GST; small tags and cut ends) VHH: DVQLQESGGGLVQPGESLRLSCLVSGVTYHFYDITWFRQAPGLEREGVSCISYASGSTKFADSVKGRFTISRDNAKNAVYLQMNSLKPEDTAVYFCAMQGSGSCSDFMSADSVLSWGQGTQVTVSS here.
Output: 129

Task: Supply recorded Max. TNFα release (pg/ml), NK cells with A431 cells for VHH1 SEEDbody eff- (bispecific antibody, part only; not given: silenced SEED Fc and cetuximab Fab, V domains shown, not shown: another chain or arm of the molecule; a dimerising Fc or GST; small tags and cut ends) VHH: DVQLQESGGGLVQPGGSLRLSCATSGFTLDDYTIGWVRQAPGKEHEGVSCFSPSDGTTYYADSVKGRFTFSRDNAKNTVYLQMNSLKPEDTAVYYCAASFADGSSWCYDYWGQGTQVTVSS here.
Output: 104

Task: Supply recorded Max. TNFα release (pg/ml), NK cells with A431 cells for VHH5 SEEDbody eff- (bispecific antibody, part only; not given: silenced SEED Fc and cetuximab Fab, V domains shown, not shown: another chain or arm of the molecule; a dimerising Fc or GST; small tags and cut ends) VHH: DVQLQESGGGLVQPGESLRLSCLVSGVTYHFYDITWFRQAPGLEREGVSCISYASGSTKFADSVKGRFTISRDNAKNAVYLQMNSLKPEDTAVYFCATQGSGSCSDFMSADSVLSWGQGTQVTVSS here.
Output: 119

Task: Supply recorded Max. TNFα release (pg/ml), NK cells with A431 cells for VHH2 SEEDbody eff- (bispecific antibody, part only; not given: silenced SEED Fc and cetuximab Fab, V domains shown, not shown: another chain or arm of the molecule; a dimerising Fc or GST; small tags and cut ends) VHH: DVQLQESGGGLVQAGGSLRLSCAVSGQTWTNYHIGWFRQAPGKARESVASIEWGGRGTYATDSVKGRFTISRDNAKNTVYLQMNSLKPEDTAVYYCAAQSSSRSPLESNYDYWGQGTQVTVSS here.
Output: 118
